These data points were gathered from paper PMC12864922.

- TARGET OF ASSAY: TDP-43 (Homo sapiens, UniProt Q13148 1-414)
- Sequence (Q13148 whole entry): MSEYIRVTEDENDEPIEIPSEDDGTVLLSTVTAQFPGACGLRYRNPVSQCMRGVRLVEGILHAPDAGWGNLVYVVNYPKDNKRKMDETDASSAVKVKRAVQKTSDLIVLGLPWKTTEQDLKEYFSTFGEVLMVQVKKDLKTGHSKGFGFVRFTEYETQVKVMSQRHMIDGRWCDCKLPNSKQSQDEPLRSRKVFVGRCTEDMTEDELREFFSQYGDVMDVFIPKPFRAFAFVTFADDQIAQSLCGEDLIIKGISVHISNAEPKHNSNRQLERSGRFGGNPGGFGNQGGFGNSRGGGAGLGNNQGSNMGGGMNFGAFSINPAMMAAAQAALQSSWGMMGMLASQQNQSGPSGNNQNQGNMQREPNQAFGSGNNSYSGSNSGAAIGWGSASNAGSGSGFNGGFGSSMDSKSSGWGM
- ASSAY NAME: RNA Bind-n-Seq with designed 260-mer pool; 25 mM Tris-HCl, 150 mM KCl, 3 mM MgCl2, BSA (printed 500 mg/mL), 20 units/mL SUPERase IN; pH not stated; 500 nM RNA pool, 1 h, 4 C; TDP-43 5, 50, 500 nM; high values mean tight binding
- PROTOCOL CONDITIONS: protein: recombinant; tags: SBP (GST cleaved off with PreScission; pGEX-GST-SBP)
In all, about 9,900 sequences were measured (“r (bound/input frequency ratio)”: median about 0.7, highest 2% from about 6.5 on). Many of the other results were omitted from the sample, so the highest values are more common in it than they were.
MEASUREMENT LABEL: binding signal

{"columns": ["BINDER", "binding signal"],
 "data": [
  ["ENSMUSG00000028439.142|Fam219a (ssRNA) RNA: GGGAGUUCUACAGUCCGACGAUCGCUUCGAUAUCCGCAUGCUACGCCCUGCCACCCCCAGUCUUCUGUCUAUUGGUUCCAGGCUGGAAGCAAGAGAUAAGGCUGGCCUCCUGUGCCCCAUUGCCAUUUCACCCUAGCUCAAAGUCCAGGAGCCAGGCUUCCAGAAAGGCUCUUCAAGAGCAAGCUUAAGGAAAUACAGUGAGCCAAGUGGCUGUAUGAUAUGGUAUGGUAUGGUAUGGUAUGGUAUGGUAUGGUAUGCACAUGUGUGUGCAUGUGUGUGUGCCUGUGUGUGUGCGUGUGCGUGCUCUUGCGGUCGCACUAGUGUGGAAUUCUCGGGUGUCAAGG", "4.5 R (bound/input frequency ratio)"]
]}

Return reported binding signal; argument: ENSMUSG00000028439.145|Fam219a (ssRNA) RNA: GGGAGUUCUACAGUCCGACGAUCGCUUCGAUAUCCGCAUGCUACUUCUGUCUAUUGGUUCCAGGCUGGAAGCAAGAGAUAAGGCUGGCCUCCUGUGCCCCAUUGCCAUUUCACCCUAGCUCAAAGUCCAGGAGCCAGGCUUCCAGAAAGGCUCUUCAAGAGCAAGCUUAAGGAAAUACAGUGAGCCAAGUGGCUGUAUGAUAUGGUAUGGUAUGGUAUGGUAUGGUAUGGUAUGGUAUGCACAUGUGUGUGCAUGUGUGUGUGCCUGUGUGUGUGCGUGUGCGUGUGUGUAUGUGUGUGCGUGCUCUUGCGGUCGCACUAGUGUGGAAUUCUCGGGUGUCAAGG 8.23 R (bound/input frequency ratio)
